targetOrTestSystem: Translocator protein (Rattus norvegicus, UniProt P16257)
Sequence (P16257 whole entry, looked up): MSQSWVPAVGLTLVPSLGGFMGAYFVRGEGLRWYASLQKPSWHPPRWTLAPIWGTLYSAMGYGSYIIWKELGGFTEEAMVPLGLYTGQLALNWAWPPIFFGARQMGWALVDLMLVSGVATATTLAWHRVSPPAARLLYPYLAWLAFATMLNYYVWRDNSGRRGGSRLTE
experimentNotes: Displacement of [3H]PK11195 from PBR receptor in Wistar rat heart homogenates
Format: tissue-based
pKi: −log10 of the molar value.
Would you please tag the item true (1) when its pKi is 9 or above, and false (0) when it is below?

-- ask State whether the measured pKi reaches 9, counting equality as reaching it, for CCN(CC)C(=O)C1Sc2ccccc2-c2c1c1cc(F)ccc1n2CCF (racemic)
-- reply true (1)

-- ask State whether the measured pKi reaches 9, counting equality as reaching it, for CCN(CC)C(=O)C1Sc2ccccc2-c2c1c1cc(Cl)ccc1n2CCF (racemic)
-- reply true (1)

***
-- ask State whether the measured pKi reaches 9, counting equality as reaching it, for CCN(CC)C(=O)C1Sc2ccccc2-c2c1c1cc(OC)ccc1n2CCF (single isomer, unassigned; form 2)
-- reply true (1)

-- ask State whether the measured pKi reaches 9, counting equality as reaching it, for CCN(CCF)C(=O)c1sc2ccccc2c2nc3ccccc3c1-2
-- reply false (0)
